The measured values listed here are drawn from the RNAGym collection of RNA variant scans (doi:10.7554/elife.80360).

B1: Hairpin Ribozyme (parent)
chain: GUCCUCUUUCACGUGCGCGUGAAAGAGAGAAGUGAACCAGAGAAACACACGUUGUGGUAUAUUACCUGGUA

Variants of: B1
assay comment: self-cleavage, relative activity (ratio to wild type); higher = more cleavage; co-transcriptional
Each entry below carries its reported self-cleavage.
observable: self-cleavage

{"columns": ["variant spec", "observable", "measured result"],
 "data": [
  ["G19U G42C", "self-cleavage", 0.492],
  ["C4U U70A", "self-cleavage", 0.299],
  ["U2A G40U", "self-cleavage", 0.129],
  ["A39G U58A", "self-cleavage", 0.217],
  ["A24U U63A", "self-cleavage", 0.237],
  ["G13A A35G", "self-cleavage", 0.732],
  ["C65U U67A", "self-cleavage", 0.309],
  ["C10G A31G", "self-cleavage", 0.576],
  ["C6G U14C", "self-cleavage", 0.449],
  ["A36G U55A", "self-cleavage", 0.301],
  ["U5A C46U", "self-cleavage", 0.0644],
  ["U33A C65U", "self-cleavage", 0.238],
  ["G51C U58C", "self-cleavage", 0.905],
  ["U8G U67C", "self-cleavage", 0.189],
  ["G21U U58G", "self-cleavage", 0.585],
  ["C3A G25A", "self-cleavage", 0.457],
  ["A35U G57C", "self-cleavage", 0.116],
  ["A61G A64C", "self-cleavage", 0.109],
  ["A11C G25C", "self-cleavage", 0.457],
  ["C46A A64C", "self-cleavage", 0.0755],
  ["A36U U62G", "self-cleavage", 0.216],
  ["G42U A45C", "self-cleavage", 0.227],
  ["U9A A64U", "self-cleavage", 0.131],
  ["G29C C37U", "self-cleavage", 0.121],
  ["U14A G17A", "self-cleavage", 1.03],
  ["A31U G57C", "self-cleavage", 0.155],
  ["U58G A64U", "self-cleavage", 0.218],
  ["U58G C66A", "self-cleavage", 0.281],
  ["C6A G56U", "self-cleavage", 0.218],
  ["G21U A23U", "self-cleavage", 0.754],
  ["U20A G40A", "self-cleavage", 0.242],
  ["U7A A41U", "self-cleavage", 1.28],
  ["C16U C18G", "self-cleavage", 0.873],
  ["A31G G54C", "self-cleavage", 0.276],
  ["G15A C18U", "self-cleavage", 1.05],
  ["G25A G29C", "self-cleavage", 0.118],
  ["C4U G54A", "self-cleavage", 0.166],
  ["G40C U67C", "self-cleavage", 0.098],
  ["U7A G69A", "self-cleavage", 0.315]
]}
